Target: Protein-tyrosine kinase 2-beta (Homo sapiens) (UniProt Q14289)
Sequence (Q14289 whole entry, looked up): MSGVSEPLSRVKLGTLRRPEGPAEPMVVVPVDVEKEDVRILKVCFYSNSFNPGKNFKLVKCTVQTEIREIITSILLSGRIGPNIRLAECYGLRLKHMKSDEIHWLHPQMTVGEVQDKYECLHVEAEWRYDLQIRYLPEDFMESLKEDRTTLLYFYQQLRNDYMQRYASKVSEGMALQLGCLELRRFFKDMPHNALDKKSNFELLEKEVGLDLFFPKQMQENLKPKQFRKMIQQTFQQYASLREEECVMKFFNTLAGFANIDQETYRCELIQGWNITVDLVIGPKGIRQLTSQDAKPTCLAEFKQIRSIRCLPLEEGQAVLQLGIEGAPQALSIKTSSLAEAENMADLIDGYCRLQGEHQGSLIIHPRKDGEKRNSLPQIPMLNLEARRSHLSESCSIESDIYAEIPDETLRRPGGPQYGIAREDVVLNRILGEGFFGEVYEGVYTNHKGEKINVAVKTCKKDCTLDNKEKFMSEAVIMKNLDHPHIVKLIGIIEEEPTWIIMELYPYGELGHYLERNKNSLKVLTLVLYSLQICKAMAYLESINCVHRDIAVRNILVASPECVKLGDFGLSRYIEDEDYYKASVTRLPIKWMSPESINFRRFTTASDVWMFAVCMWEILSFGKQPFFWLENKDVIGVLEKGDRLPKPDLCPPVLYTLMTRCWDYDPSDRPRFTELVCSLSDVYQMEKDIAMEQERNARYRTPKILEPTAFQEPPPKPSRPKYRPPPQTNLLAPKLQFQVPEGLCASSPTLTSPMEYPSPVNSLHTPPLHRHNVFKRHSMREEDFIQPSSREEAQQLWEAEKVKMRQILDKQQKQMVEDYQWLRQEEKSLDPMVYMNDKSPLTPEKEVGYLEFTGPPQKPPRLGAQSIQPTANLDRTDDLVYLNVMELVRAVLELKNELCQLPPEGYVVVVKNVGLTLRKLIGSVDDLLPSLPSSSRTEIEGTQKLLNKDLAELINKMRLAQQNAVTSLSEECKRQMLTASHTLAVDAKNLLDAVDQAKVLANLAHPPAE
Conditions: at 10 µM
Assignment: determine reported residual activity for the given molecules.
Remember to put the unit after the number in your answer.

Example entries begin here.
Chemical String	Test Target	residual activity
O=C1NC(=O)C(c2cn(CCCn3ccnc3)c3ccccc23)=C1Nc1ccccc1	Protein-tyrosine kinase 2-beta (Homo sapiens) (UniProt Q14289)	81%
NC(=O)c1cccc(-c2cc(Nc3ccc(OC(F)(F)F)cc3)ncn2)c1	Protein-tyrosine kinase 2-beta (Homo sapiens) (UniProt Q14289)	95%
Nc1nc(Nc2ccc(S(N)(=O)=O)cc2)nn1C(=O)c1c(F)cccc1F	Protein-tyrosine kinase 2-beta (Homo sapiens) (UniProt Q14289)	14%
NC(=O)Nc1sc(-c2ccc(F)cc2)cc1C(N)=O	Protein-tyrosine kinase 2-beta (Homo sapiens) (UniProt Q14289)	10%

Count: 7. Required value per item: residual activity.
1. N#C/C(=C\c1ccc(O)c(O)c1)C(=O)NCc1ccccc1
2. O=C(CCCc1ccc(-c2ccccc2F)cc1)Nc1ccc(O)cc1
3. COc1ccc2c(c1)c(C1=C(c3c[nH]c4ccccc34)C(=O)NC1=O)cn2CCCN(C)C
4. O=C1NC(=O)C(c2c[nH]c3ccccc23)=C1c1c[nH]c2ccccc12
5. COc1ccc(CNC(=O)Nc2ncc([N+](=O)[O-])s2)cc1
6. O=C1Cc2c([nH]c3ccc(Br)cc23)-c2ccccc2N1
7. O=C1Nc2ccccc2/C1=C\c1c(Cl)[nH]c2ccccc12

101%
104%
32%
28%
77%
58%
65%

---

Biological target: Serine/threonine-protein kinase PLK1 (Homo sapiens) (UniProt P53350)
Sequence (P53350 whole entry): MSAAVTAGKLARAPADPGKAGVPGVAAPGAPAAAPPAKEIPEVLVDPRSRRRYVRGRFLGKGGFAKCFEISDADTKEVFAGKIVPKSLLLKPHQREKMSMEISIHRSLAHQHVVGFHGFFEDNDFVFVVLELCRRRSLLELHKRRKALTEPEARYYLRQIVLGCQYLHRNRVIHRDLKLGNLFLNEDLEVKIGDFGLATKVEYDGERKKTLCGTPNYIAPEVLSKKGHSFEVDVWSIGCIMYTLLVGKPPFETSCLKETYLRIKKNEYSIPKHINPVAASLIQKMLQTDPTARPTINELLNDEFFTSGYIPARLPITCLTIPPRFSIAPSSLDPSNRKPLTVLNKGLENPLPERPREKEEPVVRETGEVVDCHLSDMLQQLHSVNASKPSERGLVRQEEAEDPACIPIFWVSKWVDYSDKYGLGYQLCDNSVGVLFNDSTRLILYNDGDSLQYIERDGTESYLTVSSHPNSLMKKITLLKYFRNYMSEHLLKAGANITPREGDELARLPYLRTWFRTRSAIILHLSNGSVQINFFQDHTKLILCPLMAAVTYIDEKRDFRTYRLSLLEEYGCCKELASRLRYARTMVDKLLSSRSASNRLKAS
Details: at 10 µM
So I've got a bunch of compounds here, and I need their residual activity values.
Give bare numbers, in %.

// known answers, use as guide
Chemical String	residual activity [%]
COc1ccc(-c2cnc3c(-c4ccsc4)cnn3c2)cc1	71
COc1cc2c(cc1OC)-c1n[nH]c(Nc3cccc(F)c3)c1C2	61

Take each entry in turn and give its residual activity.
1. COc1ccc(Cl)cc1NC(=O)Nc1cc(C)nc2ccccc12
2. O=C(c1ccccc1)c1ccc(N2CCOCC2)cc1O
3. O=C(CCCc1ccc(-c2ccccc2F)cc1)Nc1ccc(O)cc1
4. Nc1ncnc2[nH]nc(Nc3ccc(F)cc3)c12
5. NC(=O)c1cccc(-c2cc(Nc3ccc(OC(F)(F)F)cc3)ncn2)c1
6. O=C1NC(=O)c2c1c1c3ccccc3[nH]c1n1cncc21

82
75
103
77
88
60

Working through the 4 compounds below one at a time, give residual activity for each.
1. CCN(CC)CCNC(=O)c1c(C)[nH]c(/C=C2\C(=O)Nc3ccc(Cl)cc32)c1C
2. Cn1sc(=O)n(Cc2ccccc2)c1=O
3. CC(C)[C@H](CO)Nc1nc(Nc2cc(N)cc(Cl)c2)c2ncn(C(C)C)c2n1
4. O=C1NC(=O)C(c2cn(CCCn3ccnc3)c3ccccc23)=C1Nc1ccccc1

55
70
9
64

Data request, read-out residual activity, for `Cc1cc(C)c(/C=C2\C(=O)Nc3ccccc32)[nH]1` 76

---

Biological target: Mitogen-activated protein kinase kinase kinase 9 (Homo sapiens)
Details: at 1 µM
Property Measured: residual activity (%)
Answers are plain numbers, in %.

// known answers, use as guide
Chemical String	Numeric Result
COc1ccc(Cl)cc1NC(=O)Nc1cc(C)nc2ccccc12	91
O=C1Cc2c([nH]c3ccc([N+](=O)[O-])cc23)-c2ccccc2N1	7
NCCNc1ncc(C(N)=O)c(Nc2cccc(C(F)(F)F)c2)n1	30
COc1ccc2c(c1)c(C1=C(c3c[nH]c4ccccc34)C(=O)NC1=O)cn2CCCN(C)C	63
CCCCc1c(-c2ccc(O)cc2)[nH]c2nccnc12	16
CCCC(=O)Oc1ccc2[nH]c(C(=O)c3cc4ccccc4[nH]3)cc2c1	80
Nc1nc(Nc2ccc(S(N)(=O)=O)cc2)nn1C(=O)c1c(F)cccc1F	16
COc1cc2ncnc(Nc3cccc(Cl)c3)c2cc1OC	76
O=C1NC(=O)C(c2c[nH]c3ccccc23)=C1c1c[nH]c2ccccc12	43

Okay, next one:
# input compound: `N#C/C(=C1/Nc2ccccc2S1)c1ccnc(NCCc2cccnc2)n1` ; wanted: its residual activity 48
